# system.under.test: Cyclooxygenase (Rattus norvegicus) (UniProt P35355+Q63921)
# method.summary: In vitro inhibitory activity against Prostaglandin G/H synthase in rat neutrophils at a dose of 50 uM
measurement.kind: inhibition (%)

>  <compound>
CC(C)=CCc1c(O)n(Cc2ccc(F)cc2)c2nc3c(c(=O)n(C)c(=O)n3C)n2c1=O

>  <inhibition (%)>
93

$$$$
>  <compound>
CCCc1c(O)n(Cc2ccc(F)cc2)c2nc3c(c(=O)n(C)c(=O)n3C)n2c1=O

>  <inhibition (%)>
36

$$$$
>  <compound>
C#CCc1c(O)n(Cc2ccc(F)cc2)c2nc3c(c(=O)n(C)c(=O)n3C)n2c1=O

>  <inhibition (%)>
3

$$$$

a. C/C=C/Cc1c(O)n(Cc2ccccc2)c2nc3c(c(=O)n(C)c(=O)n3C)n2c1=O
b. Cn1c(=O)c2c(nc3n(Cc4ccccc4)c(O)c(CC=C4CCCCC4)c(=O)n23)n(C)c1=O
Qu. Hi! Which is lower in terms of inhibition, the first one a or the second one b ? Provide the label of your selected option as the answer.
Ans. b
(b: 0%, a: 49%)

I. COc1ccc(Cn2c(O)c(CC=C(C)C)c(=O)n3c4c(=O)n(C)c(=O)n(C)c4nc23)cc1
II. C=CCc1c(O)n(Cc2ccccc2)c2nc3c(c(=O)n(C)c(=O)n3C)n2c1=O
Qu. Determine, for I and II , which has the greater value of inhibition. Provide the label of your selected option as the answer.
Ans. I

---

# method.summary: Plasma level data at a dose of 36 mg/kg, po after 1 hr
# Format: ADME, organism-based
# Design: dose 36 mg/kg, route oral
# experimental.conditions: read-out: Plasma level
measurement.kind: concentration at 1 h (µg/mL)
Could you give me the number in µg/mL? Just the number is fine.

Qu. Which measured concentration at 1 h value corresponds to CCCc1c(O)n(Cc2ccc(F)cc2)c2nc3c(c(=O)n(C)c(=O)n3C)n2c1=O ?
Ans. 23.1

---

# method.summary: Plasma level data at a dose of 20 mg/kg, iv after 0.5 hr
# Assay type: ADME, organism-based
# Set-up: dose 20 mg/kg, route intravenous
# experimental.conditions: read-out: Plasma level
measurement.kind: concentration at 0.5 h (µg/mL)
Could you give me the number in µg/mL? Just the number is fine.

Qu. Which measured concentration at 0.5 h value corresponds to CC(C)=CCc1c(O)n(Cc2ccccc2)c2nc3c(c(=O)n(C)c(=O)n3C)n2c1=O ?
Ans. 78.6

---

# method.summary: Plasma level data at a dose of 36 mg/kg, po after 6 hr
# Assay type: ADME, organism-based
# Set-up: dose 36 mg/kg, route oral
# experimental.conditions: read-out: Plasma level
measurement.kind: concentration at 6 h (ng/mL)
Could you give me the number in ng/mL? Just the number is fine.

Qu. Which measured concentration at 6 h value corresponds to CCCc1c(O)n(Cc2ccc(F)cc2)c2nc3c(c(=O)n(C)c(=O)n3C)n2c1=O ?
Ans. 21000

---

# method.summary: Plasma level data at a dose of 20 mg/kg, iv after 1 hr
# Assay type: ADME, organism-based
# Design: dose 20 mg/kg, route intravenous
# experimental.conditions: read-out: Plasma level
measurement.kind: concentration at 1 h (µg/mL)
Could you give me the number in µg/mL? Just the number is fine.

Qu. Which measured concentration at 1 h value corresponds to CC(C)=CCc1c(O)n(Cc2ccccc2)c2nc3c(c(=O)n(C)c(=O)n3C)n2c1=O ?
Ans. 74.7
